Experiment: NCI Yeast Anticancer Drug Screen. Data for the sgs1 mgt1 strain (AID 161);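 further: 0% = growth of cultures given vehicle only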
Conditions: S. cerevisiae sgs1 mgt1 strain, at 50.0 µM
Procedure: Growth inhibition of yeast strains with defined genetic alterations is measured as a screen for potential anti-cancer activity. Selected strains with alterations in DNA damage repair or cell cycle control were exposed to compounds and growth inhibition was measured relative to vehicle treated controls. The strain used in this assay is sgs1 mgt1
The panel holds about 79,000 compounds, 15% with a hit somewhere; the sample as a whole holds those more often. The source made the active and inactive calls. No stated cut-off is given here; in the data, active means growth inhibition above about 70%; inactive means the rest.
Lab note: assign the record to one of active, inactive

// below: answered compounds
>  <structure>
C=C1CC[C@@H]2C(C)(C)CCC[C@@]2(C)[C@@H]1Cc1cc(O)ccc1O

>  <discrete label>
active

$$$$
>  <structure>
Clc1ccc(N=Nc2ccccn2)cc1

>  <discrete label>
inactive

$$$$
>  <structure>
CC(=O)c1cccc(NC(=O)Nc2ccc(Nc3ccccc3)cc2)c1

>  <discrete label>
inactive

$$$$

Just curious, what result did `COc1cccc(OC)c1/C=C1\N=C(c2ccccc2)OC1=O` get here?
inactive

Just curious, what result did `CCOC(=S)SCCSC` get here?
inactive

Just curious, what result did `Cc1ccc(Cl)cc1NC(=O)Nc1cccc(C(F)(F)F)c1` get here?
inactive

* * *

Assay: NCI Yeast Anticancer Drug Screen. Data for the cln2 rad14 strain (AID 165);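 further: 0% = growth equal to vehicle treated cultures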
Details: S. cerevisiae cln2 rad14 strain, at 50.0 µM, stronger effect = higher value
This is part of a sample that, as a whole, favours compounds with a hit. Of some 79,000 tested, about 15% had one in any assay.
Using growth inhibition as the sorting value, the categories are I = under -10%, II = from -10% up to 10%, III = 10% and over

// below: answered compounds
>  <compound>
c1ccc2sc(SCSc3nc4ccccc4s3)nc2c1

>  <discrete label>
I

$$$$
>  <compound>
COc1cc(C(=O)Nc2cccc(Cl)c2Cl)cc(OC)c1OC

>  <discrete label>
III

$$$$
>  <compound>
C=C1C(OC(=O)/C=C/c2ccccc2)CC(OC(C)=O)C2(C)C1CC1CC(OC(C)=O)C(C)=C(C(OC(C)=O)C2OC(C)=O)C1(C)C (stereo unspecified)

>  <discrete label>
III

$$$$

Lab note: sort `O=C(CC(O)(C(F)(F)F)C(F)(F)F)c1ccc(Cl)c([N+](=O)[O-])c1` into the matching growth inhibition band.
III

Lab note: sort `O=C(O)c1ccc(C(=O)O)nc1` into the matching growth inhibition band.
I

Lab note: sort `CCC(O)(CC)Cc1ccc(Cl)cc1` into the matching growth inhibition band.
I

Lab note: sort `CC(C)(C#N)OC(=O)c1cc([N+](=O)[O-])cc([N+](=O)[O-])c1` into the matching growth inhibition band.
I

* * *

Listed molecules paired with reported growth inhibition
Experiment: NCI Yeast Anticancer Drug Screen. Data for the mec2-1 strain (AID 157)
Conditions: S. cerevisiae mec2-1 strain, at 50.0 µM, stronger effect = higher value
About 79,000 compounds went through this panel and 15% of them were active in at least one assay; those are over-represented in the sample as a whole.
Please give a number only; it is taken to be in %.

These recorded examples may help you get a feel for the data.
>  <molecule>
CCOc1ccc(NC(=O)CC2SC(=Nc3ccc(C)cc3)NC2=O)cc1 (stereo not given)

>  <uom>
%

>  <growth inhibition>
-38.5

$$$$
>  <molecule>
CCCCn1c2nc3ccccc3c-2nc2cc(OC)c(OC)cc21

>  <uom>
%

>  <growth inhibition>
15.3

$$$$
>  <molecule>
CC(C)CCC[C@@H](C)[C@H]1CC[C@H]2C3=CC=C4C[C@H](OC(=O)c5ccccc5)CC[C@]4(C)[C@H]3CC[C@]12C

>  <uom>
%

>  <growth inhibition>
5.5

$$$$
>  <molecule>
C/C(N)=N/C(=O)OCCOC(=O)/N=C(\C)N

>  <uom>
%

>  <growth inhibition>
8.3

$$$$
>  <molecule>
CC(=O)Nc1ccc2c(c1)N(O)C(=O)C2(C)C

>  <uom>
%

>  <growth inhibition>
6.3

$$$$

Param item = C=C(C)c1nn(-c2ccccc2)c2c1C(=O)CC(C)O2 (stereo not given) ; retrieve measured growth inhibition.
-26.2

Param item = `CCOC(=O)c1ccc(NC(NC(=O)CC)(C(F)(F)F)C(F)(F)F)cc1` ; retrieve measured growth inhibition.
-20.4

Param item = `O=[N+]([O-])c1ccc2oc3cccnc3c2c1` ; retrieve measured growth inhibition.
-2.8

Param item = `COc1ccc(C(=O)c2cc(OC)c(OC)c(OC)c2)cc1OC` ; retrieve measured growth inhibition.
-27.2

* * *

Assay: NCI Yeast Anticancer Drug Screen. Data for the sgs1 mgt1 strain (AID 161);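 further: 0% = growth of cultures given vehicle only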
Conditions: S. cerevisiae sgs1 mgt1 strain, at 50.0 µM
About 79,000 compounds went through this panel and 15% of them were active in at least one assay; those are over-represented in the sample as a whole. Calls of active or inactive are those of the source. Rule as the data show it: active = growth inhibition above about 70%; inactive = the rest. Where a SMILES comes first, the peptide text is derived from it. [ ]: non-standard residue; d: D form. The star is where a group is joined. ξ: configuration not given here. dThr(3ξ) = CC(O)[C@@H](N)C(=O)O; dNMeL = CN[C@H](CC(C)C)C(=O)O; OBn = c1ccc(CO*)cc1; ξLac = CC(O)C(=O)O
Lab note: assign the record to one of active, inactive

Just curious, what result did `Cc1ccc(C(=O)CCN2CCOCC2)c(C)c1` get here?
inactive

Just curious, what result did Nc1nc2ncn(CC(O)COC(=O)c3ccccc3)c2c(=O)[nH]1 (configuration not stated) get here?
inactive

Just curious, what result did `COc1ccc(C2=Nn3c(nc4sc(-c5ccccc5)cc4c3=O)SC2)cc1` get here?
inactive

Just curious, what result did CC(O)C(N=Cc1nc(-c2ccccc2)oc1O)C(=O)O (configuration not stated) get here?
inactive

Just curious, what result did `OCCSCc1ccccc1` get here?
inactive

Just curious, what result did `Nc1c(Br)cc(Br)c(C(=O)O)c1Br` get here?
inactive

Just curious, what result did CCCC(O)CNCC1CCC2CCc3cccc1c32 (configuration not stated) get here?
inactive

Just curious, what result did `COc1ccc(/C(Cl)=C(\CNc2ccccn2)c2ccccc2)cc1OC` get here?
inactive

Just curious, what result did COC(=O)C(C(=O)C(=O)Nc1nc2ccc([N+](=O)[O-])cc2s1)c1nc2ccc(Cl)cc2[nH]c1=O (configuration not stated) get here?
inactive

Just curious, what result did `C=CCNC(=S)N(Cc1ccccc1)Cc1ccccc1` get here?
active

Just curious, what result did `Nc1cc(C(=O)O)c(O)c(Cl)c1O` get here?
inactive

Just curious, what result did CC1C(O)CCC2C1(C)CCC1C2(C)CCC2(C)C3CC(C)(C)CCC3(C)CCC12C (configuration not stated) get here?
inactive

Just curious, what result did CC(=O)OC(C)[C@@H](NC(=O)[C@@H](CC(C)C)N(C)C(=O)[C@@H]1CCCN1C(=O)C(C)O)C(=O)OCc1ccccc1 (some centres not stated) (H-[ξLac]P[dNMeL][dThr(3ξ)](Ac)-OBn) get here?
inactive

Just curious, what result did O=C(COc1ccc(Cl)cc1)N1N=C(c2ccc(Cl)cc2)CC1(O)c1ccccc1 (configuration not stated) get here?
inactive

Just curious, what result did CCCC(=O)OCC1OC(n2cc(F)c(=O)[nH]c2=O)CC1O (configuration not stated) get here?
inactive

Just curious, what result did `COc1ccc(/C=C/c2c([N+](=O)[O-])c(=O)n(C)c(=O)n2C)cc1` get here?
inactive

Just curious, what result did OCC1OC(n2cc3ccccc3n2)C(O)C1O (configuration not stated) get here?
inactive

Just curious, what result did Cc1ccc(S(=O)(=O)NC(=O)c2ncn(C3OC(CO)C(O)C3O)c2N)cc1 (configuration not stated) get here?
inactive

* * *

Test: NCI Yeast Anticancer Drug Screen. Data for the sgs1 mgt1 strain (AID 161);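 further: 0% = growth of cultures given vehicle only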
Settings: S. cerevisiae sgs1 mgt1 strain, at 50.0 µM, stronger effect = higher value
About 79,000 compounds went through this panel and 15% of them were active in at least one assay; those are over-represented in the sample as a whole.
observable: growth inhibition (%)
Please give a number only; it is taken to be in %.

These recorded examples may help you get a feel for the data.
>  <compound>
O=C(OCc1ccccc1CN1CCOCC1)c1cccc(Cl)c1

>  <growth inhibition, %>
17.3

$$$$
>  <compound>
S=c1[nH]nc(SCc2ccc(Cl)cc2Cl)c2[nH]cnc12

>  <growth inhibition, %>
11.4

$$$$
>  <compound>
CCOC(=O)C(C)CC(C)C(=O)OCC (stereo not given)

>  <growth inhibition, %>
-19.3

$$$$
>  <compound>
CNc1ncnc2c1ncn2C

>  <growth inhibition, %>
-7.1

$$$$

Param item = `CC1(C)CCC(C)(C)c2cc(C(=O)O)ccc21` ; retrieve measured growth inhibition.
1.55

* * *

Assay: NCI Yeast Anticancer Drug Screen. Data for the cln2 rad14 strain (AID 165);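 further: 0% = growth equal to vehicle treated cultures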
Settings: S. cerevisiae cln2 rad14 strain, at 50.0 µM, stronger effect = higher value
About 79,000 compounds went through this panel and 15% of them were active in at least one assay; those are over-represented in the sample as a whole.
Listed compounds paired with reported growth inhibition
Please give a number only; it is taken to be in %.

These recorded examples may help you get a feel for the data.
>  <compound>
CC(=O)OC1(C)N=NC2(CCCCC2)O1 (centres undefined)

>  <uom>
%

>  <growth inhibition>
7.5

$$$$
>  <compound>
COC(=O)c1nnn(-c2c(C)cccc2C(C)C)c1C(=O)c1ccccc1

>  <uom>
%

>  <growth inhibition>
-7.6

$$$$
>  <compound>
COc1ccc2c(c1CCl)C(=O)OC2

>  <uom>
%

>  <growth inhibition>
-20.6

$$$$
>  <compound>
CCNCCNC(=O)c1ccc(I)cc1

>  <uom>
%

>  <growth inhibition>
6.65

$$$$
>  <compound>
CSCCC(NCCC#N)C(=O)O (centres undefined)

>  <uom>
%

>  <growth inhibition>
-12.9

$$$$
>  <compound>
CC(=O)Nc1cccc([N+](=O)[O-])c1

>  <uom>
%

>  <growth inhibition>
-7.85

$$$$
>  <compound>
COCC(C)(CO)CC(C)CO (centres undefined)

>  <uom>
%

>  <growth inhibition>
-42

$$$$
>  <compound>
O=S(=O)(O)c1cc2nonc2c2ccccc12

>  <uom>
%

>  <growth inhibition>
9.25

$$$$

Param item = C[N+]1(CCC(=O)c2ccco2)CC2CCC(CC2)C1 (centres undefined) ; retrieve measured growth inhibition.
-24.9

Param item = Cc1cn(C2CC3OP(=O)(OCc4ccccc4)OCC3O2)c(=O)[nH]c1=O (centres undefined) ; retrieve measured growth inhibition.
7.25

Param item = `CN1CCC=C(C(C)(C)O)C1` ; retrieve measured growth inhibition.
11.3

Param item = `COc1c2occc2c(OC)c2c(=O)c(S(=O)(=O)NC(=O)Nc3ccc(Cl)cc3)coc12` ; retrieve measured growth inhibition.
-55.8

Param item = C1=CC([P+](Cc2ccccc2)(c2ccccc2)c2ccccc2)CC1 (centres undefined) ; retrieve measured growth inhibition.
-1.55

Param item = `CSc1ccc(OC(=O)Nc2cc(Cl)ccc2C)cc1` ; retrieve measured growth inhibition.
-0.6

Param item = `Cn1c(=O)c2c(nc(NN)n2C)n(C)c1=O` ; retrieve measured growth inhibition.
-25

Param item = CC(=O)c1cccc(F)c1C(C)c1ccc2ccccc2c1 (centres undefined) ; retrieve measured growth inhibition.
3.35

Param item = CNc1nc(SCc2ccccc2)c2ncn(C3OC(CO)C(O)C3O)c2n1 (centres undefined) ; retrieve measured growth inhibition.
19.9

Param item = `COC(=O)c1nnn(-c2cccc(Cl)c2)c1N` ; retrieve measured growth inhibition.
15.7

Param item = CC(NNC(=S)N1CC2CCC(CC2)C1)c1cccc[n+]1[O-] (centres undefined) ; retrieve measured growth inhibition.
84.7
